# System Under Test: DRB4*0101 (Homo sapiens, UniProt P01903+P13762, G164S)
# Assay Method Text: biochemical
pIC50: −log10 of the molar value.

| Smiles Notation | pIC50 |
| --- | --- |
| CC(C)C[C@H](NC(=O)[C@@H](NC(=O)CNC(=O)[C@H](CC(N)=O)NC(=O)[C@H](CO)NC(=O)[C@H](Cc1c[nH]c2ccccc12)NC(=O)[C@H](CC(C)C)NC(=O)[C@@H](NC(=O)[C@H](Cc1c[nH]cn1)NC(=O)[C@H](CO)NC(=O)[C@H](CCCCN)NC(=O)[C@@H]1CCCN1C(=O)[C@@H](N)Cc1c[nH]c2ccccc12)[C@@H](C)O)C(C)C)C(=O)N[C@@H](CCC(=O)O)C(=O)N[C@@H](CO)C(=O)O | 5.18 |
| CC[C@H](C)[C@H](NC(=O)[C@H](C)N)C(=O)N[C@@H](CCC(N)=O)C(=O)N[C@@H](CCC(N)=O)C(=O)N[C@H](C(=O)N[C@@H](CCCNC(=N)N)C(=O)N[C@@H](CO)C(=O)N[C@@H](CC(C)C)C(=O)N[C@H](C(=O)NCC(=O)N[C@@H](CC(N)=O)C(=O)N[C@@H](CCC(=O)O)C(=O)N[C@@H](CCC(=O)O)C(=O)N[C@@H](Cc1ccccc1)C(=O)N[C@@H](CC(C)C)C(=O)N[C@@H](CC(=O)O)C(=O)N[C@@H](Cc1ccc(O)cc1)C(=O)O)[C@@H](C)CC)C(C)C | 5.69 |
| CC[C@H](C)[C@H](NC(=O)[C@H](CCCCN)NC(=O)[C@H](CCCCN)NC(=O)[C@H](CCC(=O)O)NC(=O)[C@H](CC(C)C)NC(=O)[C@@H]1CCCN1C(=O)[C@H](Cc1c[nH]cn1)NC(=O)[C@@H]1CCCN1)C(=O)N[C@H](C(=O)N[C@@H](CCC(N)=O)C(=O)N[C@@H](Cc1c[nH]c2ccccc12)C(=O)N[C@@H](CC(C)C)C(=O)N[C@@H](CCC(=O)O)C(=O)N[C@H](C(=O)N[C@@H](CCCCN)C(=O)NCC(=O)N[C@H](C(=O)O)C(C)C)[C@@H](C)O)[C@@H](C)O | 5.42 |
| CC(C)C[C@H](NC(=O)[C@H](C)NC(=O)[C@H](CCC(=O)O)NC(=O)[C@H](Cc1ccccc1)NC(=O)[C@H](CCC(=O)O)NC(=O)[C@H](CC(C)C)NC(=O)[C@H](Cc1ccc(O)cc1)NC(=O)[C@H](CCCNC(=N)N)NC(=O)[C@H](C)NC(=O)CNC(=O)[C@H](CC(C)C)NC(=O)[C@@H](N)Cc1c[nH]c2ccccc12)C(=O)NCC(=O)N[C@@H](Cc1ccccc1)C(=O)N[C@@H](CC(C)C)C(=O)N[C@@H](CC(N)=O)C(=O)N[C@@H](CCC(=O)O)C(=O)O | 6.56 |
| CC(C)C[C@H](NC(=O)[C@H](Cc1ccccc1)NC(=O)CN)C(=O)N[C@@H](CC(N)=O)C(=O)N[C@@H](CCC(=O)O)C(=O)N[C@@H](CC(=O)O)C(=O)N[C@@H](Cc1c[nH]cn1)C(=O)N[C@@H](Cc1c[nH]c2ccccc12)C(=O)N[C@@H](Cc1ccccc1)C(=O)N[C@@H](CO)C(=O)N[C@@H](CCCNC(=N)N)C(=O)N[C@@H](CCC(=O)O)C(=O)N[C@@H](CC(N)=O)C(=O)N[C@@H](CO)C(=O)N[C@@H](Cc1ccc(O)cc1)C(=O)N[C@@H](CO)C(=O)NCC(=O)O | 4.86 |

// provenance: paper PMC3794980
